Each entry below carries its reported TGI.
Test system: SF-295 CNS
assay-summary: NCI tumour cell line growth inhibition, 48 h
Supply the numeric figure in µM, leaving out any unit text.

Ask: Fill in: TGI of `CSc1cc(-c2ccccn2)nc(-c2ccccn2)c1` is ___
Reply: 11.5

Ask: Next molecule: Cc1ccc(C(NC(=O)c2ccccc2)c2ccc3cccnc3c2O)cc1 (stereo not drawn)
Reply: 14.7

Ask: Next molecule: `O=C(/C=C/c1ccco1)c1ccc(NCc2nc3ccccc3[nH]2)cc1`
Reply: 31.1

Ask: Next molecule: CC(=O)NC1C(OCc2ccccc2)OC(CO)C(O)C1OC(C)C(=O)N[C@@H](C)C(=O)N[C@H](CCC(=O)OCCNc1c2ccccc2nc2cccc([N+](=O)[O-])c12)C(N)=O (stereo partly drawn)
Reply: 0.0339

Ask: Next molecule: CCN1C(=O)CCCc2c1ccc(Nc1ncc(Cl)c(NC3[C@@H](C(N)=O)[C@@H]4C=C[C@H]3C4)n1)c2OC (stereo partly drawn)
Reply: 13.3

Ask: Next molecule: `C=C1C(=O)O[C@H]2[C@H]3O[C@@H](C[C@@H]12)[C@@]1(C)CC[C@H](O1)[C@H](C)CCC[C@H]3C`
Reply: 17.4

---

Each entry below carries its reported TGI.
Tested on: PC-3 prostate
assay-summary: NCI tumour cell line growth inhibition, 48 h

Study these solved cases before continuing.
{"molecule": "COc1cccc(/C=N/NC(=S)NC2CC3CCC2C3)c1O (stereo not given)", "TGI": "27 µM"}
{"molecule": "CCCCCc1nnc(NS(=O)(=O)c2ccc(NC(=O)OCC(C)C)cc2)s1", "TGI": "> 100 µM"}
{"molecule": "N[C@@H]1C(=O)N2C(C(=O)OC(c3ccccc3)c3ccccc3)=C(CCl)CS[C@H]12", "TGI": "> 100 µM"}

Ask: Fill in: TGI of CCN1C(=O)CCCc2c1ccc(Nc1ncc(Cl)c(NC3[C@@H](C(N)=O)[C@@H]4C=C[C@H]3C4)n1)c2OC (stereo not given in full) is ___
Reply: 18 µM

Ask: Next molecule: `C(=Nc1ccc(-c2nc3ccccc3[nH]2)cc1)c1ccc[nH]1`
Reply: > 100 µM

Ask: Next molecule: `CCOC(=O)C[n+]1cccc(C2(c3cc4ccccc4[nH]3)OCCO2)c1`
Reply: > 100 µM

Ask: Next molecule: O=[N+]([O-])c1ccc(C2CC(c3ccccc3Cl)=Nc3ccccc3S2=O)cc1 (stereo not given)
Reply: 17.3 µM

Ask: Next molecule: `CCN(CC)C(=S)Nc1ccc(-c2cc3ccc(O)cc3oc2=O)cc1`
Reply: > 100 µM

Ask: Next molecule: CCCCCCNC(=O)CCC(NC(=O)c1ccc(N(C)Cc2cnc3nc(N)nc(N)c3n2)cc1)C(=O)NCCCCCC (stereo not given)
Reply: > 100 µM

Ask: Next molecule: `CCO[C@@]1(COCc2ccccc2)OC(=O)C[C@@H]1N1C(=O)OC[C@@H]1c1ccccc1`
Reply: > 100 µM

---

Each entry below carries its reported TGI.
Tested on: NCI/ADR-RES ovarian
assay-summary: NCI tumour cell line growth inhibition, 48 h
Supply the numeric figure in µM, leaving out any unit text.

{"compound": "O=C(NC1CCCCC1)c1cc2ccccc2cc1O", "experimental-readout": "TGI", "test-result": 54.7}
{"compound": "C=CC(OC(C)=O)c1ccc(OC(=O)C(C)C)c(OC)c1 (centres undefined)", "experimental-readout": "TGI", "test-result": 60.8}
{"compound": "COc1cccc2c1-c1c(c3ccc([N+](=O)[O-])cc3c(=O)n1CCCN)C2=O", "experimental-readout": "TGI", "test-result": 19.1}

Field: next compound
Ask: Fill in: TGI of `O=c1oc2ccc([N+](=O)[O-])cc2c(Nc2ccc3c(c2)Sc2ccccc2O3)c1[N+](=O)[O-]` is ___
Reply: 85.5
